Measured median fluorescence intensity, fold over isotype control values are reported for all entries that follow.
# test target: SARS-CoV spike protein (SARS-CoV, UniProt P59594 14-1190)
Numbers only here, please. The scale is fold over isotype.

Example binders with recorded median fluorescence intensity, fold over isotype control:
antibody 333 (antibody, V domains shown) VH: QVHLVESGGGVVLPGRSLRLSCSASQFIFSNYDMHWVRQSPGMGLEWVAGISSDGSDKYYIDSVRGRFTISRDNAKNTLFLQMNSLTTEDTAVYSCAKGGGKFGQYWGRGTLVTVSS VL: AIQMTQSPSSLSASVGDRVTITCRASQVIRNDLAWFQQKPGEAPNLLVYSASNLQSGVPSRFSGSGSGTDFTLTISSLQPEDFATYYCLQDYSYPYTFGQGTKLDMK
1.21
antibody 340 (antibody, V domains shown) VH: QVQLVQSGAEVKKPGASVKVSCKASGYTFTSYDINWVRQATGQGLEWMGWMNPNSGNTGYAQKFQGRVTMTRNTSISTAYMELSSLRSEDTAVYYCARGRYCTGGVCWGDWYFDLWGRGTLVTVSS VL: QSVLTQPPSVSGAPGQRVTISCTGSSSNIGAGYDVHWYQQLPGTAPKFLIYGNSNRPSGVPDRFSGSKSGTSASLAITGLQAEDEADYYCQSYDSSLSGPVFGGGTKLTVL
1.26

Now look at this one.
Exercise: Give recorded median fluorescence intensity, fold over isotype control. antibody 345 (antibody, V domains shown) VH: QVQLQESGPGLVKPSQTLSLTCTVSGGSISSGDYYWSWIRQPPGKGLEWIGYIYYSGSTYYNPSLKSRVTISVDTSKNQFSLKLSSVTAADTAVYYCARVGMVDNWNFEGNWFDPWGQGTLVTVSS VL: QSALTQPRSVSGSPGQSVTISCTGTSSDVGGYNYVSWYQQHPGKAPKLMIYDVSKRPSGVPDRFSGSKSGNTASLTISGLQAEDEADYYCCSYAGSVVFGGGTKLTVL
Solution: 1.09
